B1: SPACA3 (parent)
chain: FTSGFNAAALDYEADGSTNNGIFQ

# Variants of: B1
# assay_info: protein stability index of a GFP-peptide fusion (GPS, HEK-293T) (PSI 1-6); higher = more stable;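 further: lentivirally expressed fusions sorted by FACS into six bins by GFP to DsRed ratio, PSI derived from sequencing read proportions per bin multiplied by bin number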
# stated_conditions: c terminus: a fixed tail appended
Note to self: values exactly at 2 are Fulfilled. So protein stability index at or above 2 is Fulfilled, below is Not fulfilled.

polymer_sequence: FTSGFNAAALDYIADGSTNNGIFQ [E13I]
answer_label: Not fulfilled
--
polymer_sequence: FTSGFNAAALDYEADGSTNNGIFF [Q24F]
answer_label: Not fulfilled
--
polymer_sequence: FTSGFNAQALDYEADGSTNNGIFQ [A8Q]
answer_label: Not fulfilled
--
polymer_sequence: FTSGFNAAPLDYEADGSTNNGIFQ [A9P]
answer_label: Not fulfilled
--
polymer_sequence: FTSQFNAAALDYEADGSTNNGIFQ [G4Q]
answer_label: Fulfilled
--
polymer_sequence: FTRGFNAAALDYEADGSTNNGIFQ [S3R]
answer_label: Fulfilled
--
polymer_sequence: FTSGFNAAALDSEADGSTNNGIFQ [Y12S]
answer_label: Not fulfilled
--
polymer_sequence: FTSGFNPAALDYEADGSTNNGIFQ [A7P]
answer_label: Not fulfilled
--
polymer_sequence: FTSGFNAAALDYEADGSTNAGIFQ [N20A]
answer_label: Fulfilled
--
polymer_sequence: FTSGFNAAALDYEADGSTNNGDFQ [I22D]
answer_label: Fulfilled
--
polymer_sequence: FTSGFNAAALDYEADGSTTNGIFQ [N19T]
answer_label: Not fulfilled
--
polymer_sequence: FTSGFNEAALDYEADGSTNNGIFQ [A7E]
answer_label: Fulfilled
--
polymer_sequence: FTSGFNAAALDYEADGSTNNGIAQ [F23A]
answer_label: Fulfilled
--
polymer_sequence: FTSGFNAKALDYEADGSTNNGIFQ [A8K]
answer_label: Fulfilled
--
polymer_sequence: FTSGFNAAALDYEADHSTNNGIFQ [G16H]
answer_label: Fulfilled
--
polymer_sequence: FTSGFNAAALDYEADGSTENGIFQ [N19E]
answer_label: Fulfilled
--
polymer_sequence: FTSGFNAAALDYEADGSTNNGIQQ [F23Q]
answer_label: Fulfilled
--
polymer_sequence: FTSGFNAAALDYEADLSTNNGIFQ [G16L]
answer_label: Not fulfilled
--
polymer_sequence: FTSGINAAALDYEADGSTNNGIFQ [F5I]
answer_label: Fulfilled
--
polymer_sequence: FTSGSNAAALDYEADGSTNNGIFQ [F5S]
answer_label: Fulfilled
